- MEASURED_TARGET: Dihydroorotate dehydrogenase (quinone), mitochondrial (Plasmodium falciparum (isolate 3D7))
- ASSAY_PROTOCOL: PfDHODH enzyme inhibitors, primary screen, biochemical, C-terminal His tag, absorbance 600 nm (AID 1175);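 also: recombinant parasite enzyme with a five histidine tag at its C terminus; test concentration not given here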
- CONDITION_DETAILS: DCIP absorbance 600 nm, higher = more signal, called active from +8 up or from −8 down
What composite z-score was measured for each of the following?
Numbers only.

Worked set:
INSERT INTO measurements (compound, result_number) VALUES
  ('COc1ccc([Si](C)(C)[C@@H]2[C@@H](CC(=O)N3CCC[C@H]3CO)O[C@]3(C(=O)N(Cc4cccc(N5C(=O)c6cccc7cccc5c67)c4)c4ccccc43)[C@H]2C)cc1', -1.54),
  ('COc1c(C)cc(-c2cc3c(c(CCc4ccccc4)n2)[Si](C(C)C)(C(C)C)O[C@H]3c2ccccc2)cc1C', 0.0798),
  ('CC(C)Cc1ccc(CN2CC[C@@H](NC(=O)c3ccccc3)C2)cc1', 0.228),
  ('CCCC1(C(=O)OC)C=C2C(=C(C(C)C)C(=O)C2C)CN1 (configuration not stated)', -1.05),
  ('C=CCNC(=O)[C@H]1[C@@H]2C(=O)O[C@@H](c3ccccc3)[C@@H](c3ccccc3)N2[C@@H](c2ccc(OCCO)cc2)[C@]12C(=O)Nc1ccc(C#Cc3ccc(OC)cc3)cc12', -2.27),
  ('C=CCNC(=O)[C@H]1[C@@H]2C(=O)O[C@@H](c3ccccc3)[C@@H](c3ccccc3)N2[C@@H](c2ccc(OCCO)cc2)[C@]12C(=O)N(C(=O)OCCOC)c1ccc(C#CCC(C(=O)OC)C(=O)OC)cc12', 0.0899);

Attention now turns to another entry.
Identify the reported composite z-score for the following entry. Cc1ccc(S[C@]2(C(=O)NCc3ccccc3)CC(=O)N(Cc3ccccc3Cl)[C@@H]2c2ccc(CO)cc2)cc1 0.429
